growth values, listed per item
system: SK-MEL-2 melanoma; experiment: NCI-60 one-dose screen, 48 h (100 = growth as untreated, 0 = no growth, -100 = all killed); settings: 10 µM
Compounds without any hit were thinned out: in the full panel of roughly 83,000, 20% have a hit.
API: value field is a number in %; no unit string.

C/C(=C\CC/C=C(\C)CC/C=C(\C)CC[C@@H](O)C(C)(C)O)CC/C=C(\C)CC[C@@H](O)C(C)(C)O :: 52.1
CCN1CCN(c2ccc(NC(=O)Nc3ccc(-c4cc(C(=O)NC(C)C)c5ncccc5n4)cc3)cc2C(F)(F)F)CC1 :: -71
Cc1ccc(-c2nc3ccc(C(=O)N=Nc4c(O)[nH]c5ccc(Cl)cc45)cc3[nH]2)cc1 :: 57.3

Q: Sample "COc1cc(/C=C/C(=O)c2ccc(NC(=O)CSc3nnc(-c4c[nH]c5ccccc45)n3-c3ccccc3)cc2)cc(OC)c1OC" — what was its growth?
Ans: 99.9

====

growth values, listed per item
system: HCT-15 colon; experiment: NCI-60 one-dose screen, 48 h (100 = growth as untreated, 0 = no growth, -100 = all killed); details: 10 µM
This is part of a sample that, as a whole, favours compounds with a hit. Of some 83,000 tested, about 20% had one in any assay.
API: value field is a number in %; no unit string.

COc1ccc2c(c1)N=C(C(=O)O)/C2=C/c1sc(Nc2ccc(O)cc2)nc1O :: 53.9
Cc1cc(=O)oc2cc(OCCCCOc3ccc(/C=C/C(=O)Nc4ccc(F)c(Cl)c4)cc3)ccc12 :: 97
Clc1cccc(N/N=C/c2c[nH]c3ccccc23)n1 :: 18.9

# next compound below
Q: Sample "CN1CCN(c2ccc(C(=O)/C=C/c3cc(Br)ccc3F)cc2)CC1" — what was its growth?
Ans: -22.6

====

test system: HOP-62 NSCLC; experiment: NCI-60 one-dose screen, 48 h; settings: 10 µM
The panel holds about 83,000 compounds, 20% with a hit somewhere; the sample as a whole holds those more often. The source made the active and inactive calls. How the source made its calls: active means growth percent below 10; inactive means the rest.
Hello, when you answer, please use one of the following outcomes: true (1) (active), false (0) (inactive)

Cc1cccc2cc(-c3cc(-c4ccccc4)nc(=O)[nH]3)c(Cl)nc12 :: false (0)
CN1CCN(c2ccc(Nc3nc(NCCNC(=O)c4ccc(C(F)(F)F)cc4)c4sccc4n3)cc2)CC1 :: false (0)
O=C(CSc1nnc(-c2c[nH]c3ccccc23)n1-c1ccccc1)c1ccccc1 :: false (0)

Q: Outcome? "COC[C@@H](CC(C)C)N=C1NC(=O)/C(=C/c2ccc3ncsc3c2)N1"
Ans: true (1)

Q: Outcome? "Cc1cc(C(F)(F)F)ccc1C(=O)Nc1sc2c(c1C#N)CCC(=O)C2"
Ans: true (1)

====

System: NCI/ADR-RES ovarian
Assay: NCI-60 one-dose screen, 48 h
Conditions: 10 µM
Description: Growth inhibition of the NCI/ADR-RES human […] tumor cell line is measured as a screen for anti-cancer activity. Cells are grown in 96 well plates and exposed to the test compound for 48 hours. Compounds are tested at a single concentration, which is 10^-5 M for most compounds. The reported endpoint is percent growth (GI% or GIPRCNT), where numbers from 0 - 100% represent growth inhibition, and numbers from -100% - 0 represent cell death. For example, a value of 40 represents 60% growth inhibition. […]
About 83,000 compounds went through this panel and 20% of them were active in at least one assay; those are over-represented in the sample as a whole. Activity calls are given as the source filed them. Rule for the calls: active = growth percent below 10; inactive = the rest.
Hello, when you answer, please use one of the following outcomes: T = active, F = inactive

Q: Outcome? CN1C(=O)N(C)C2SC(N/N=C/c3ccccc3F)=NC21 (centres undefined)
Ans: F

Q: Outcome? C=C1CCC2C3(C)COC(c4c(F)cccc4F)OC3CCC2(C)C1CC(O)C1=CCOC1=O (centres undefined)
Ans: F

Q: Outcome? "CCN1CCN(c2ccc(NC(=O)Nc3ccc(-c4cc(C(=O)NC)c5ncccc5n4)cc3)cc2C(F)(F)F)CC1"
Ans: T

Q: Outcome? "O=C(N/N=C/c1ccc(-c2cccc([N+](=O)[O-])c2)o1)c1[nH]c2ccc(Br)cc2c1-c1ccccc1"
Ans: T

Q: Outcome? "O=C(Nc1cccc(C(F)(F)F)c1)c1cncc(C#Cc2cnc3cccnn23)c1"
Ans: F

Q: Outcome? "O=C1Nc2ccc(Cl)cc2/C1=C/c1ccc(OCc2ccccn2)cc1"
Ans: F

====

Tested on: HCT-15 colon
Assay: NCI-60 one-dose screen, 48 h
Details: 10 µM
Procedure: Growth inhibition of the HCT-15 human tumor cell line is measured as a screen for anti-cancer activity. Cells are grown in 96 well plates and exposed to the test compound for 48 hours. Compounds are tested at a single concentration, which is 10^-5 M for most compounds. The reported endpoint is percent growth (GI% or GIPRCNT), where numbers from 0 - 100% represent growth inhibition, and numbers from -100% - 0 represent cell death. For example, a value of 40 represents 60% growth inhibition. […]
The panel holds about 83,000 compounds, 20% with a hit somewhere; the sample as a whole holds those more often. Calls of active or inactive are those of the source. Rule for the calls: active = growth percent below 10; inactive = the rest.
Hello, when you answer, please use one of the following outcomes: active, inactive

Solved entries (count: 3):
Cc1ccc(/C=C(\C#N)n2nnc3c(F)cccc32)cc1 :: inactive
O=C(CSc1nnc(-c2c[nH]c3ccccc23)n1-c1ccccc1)c1ccc(Cl)cc1 :: inactive
CCCCCc1ccc(S(=O)(=O)N(C(C)=O)c2cc(-c3csc(N(C)C(C)=O)n3)ccc2N2CCN(C)CC2)cc1 :: active

Now consider a different compound.
Q: Outcome? "C#Cc1ccc(S(=O)(=O)Nc2cccc(-c3csc(NC(C)=O)n3)c2)cc1"
Ans: inactive

====

system: UACC-62 melanoma; experiment: NCI-60 one-dose screen, 48 h; conditions: 10 µM
This is part of a sample that, as a whole, favours compounds with a hit. Of some 83,000 tested, about 20% had one in any assay. Calls of active or inactive are those of the source. How the source made its calls: active means growth percent below 10; inactive means the rest.
Hello, when you answer, please use one of the following outcomes: Y = active, N = inactive

NS(=O)(=O)c1ccc(N=Nc2c(O)n(CC(=O)Nc3ccccc3Br)c3ccccc23)cc1 :: N
OCc1[nH]nc2cc(Nc3ncc4ccc(Br)c(OC5CCC(O)CC5)c4n3)ccc12 (configuration not stated) :: Y
O=C1NC(=NC2CCCCCC2)N/C1=C\c1ccc2ncoc2c1 :: N

Q: Outcome? "CC(=O)Nc1ccc(-n2cnc3cc(-c4ccc(NS(C)(=O)=O)cc4)ccc32)cc1"
Ans: N

Q: Outcome? "COc1ccc2[nH]cc(/C=N/Nc3ccc(Br)cn3)c2c1"
Ans: N

Q: Outcome? "CCN1CCN(Cc2ccc(NC(=O)c3cccc(-n4cc(-c5ccc(NC(C)=O)nc5)nn4)c3)cc2C(F)(F)F)CC1"
Ans: N

Q: Outcome? "Cc1ccc(C(=O)NNC(=O)CSc2nc3ccccc3c(=O)[nH]2)cc1"
Ans: N

Q: Outcome? "Cc1ccc(F)cc1N/C=c1\s/c(=C(\C#N)C(=O)Nc2ccccc2)n(-c2ccccc2)c1=O"
Ans: N

Q: Outcome? "COc1cc(-c2nc3cc(Cl)c(Cl)cc3[nH]2)ccc1OCc1nnc(-c2ccc(Br)cc2)o1"
Ans: Y

Q: Outcome? "Cc1ccc(C(=O)Nc2ccc(-n3c(C)nc4c(cnn4-c4ccccc4)c3=O)cc2)cc1"
Ans: N

====

growth values, listed per item
tested on: UACC-257 melanoma; assay: NCI-60 one-dose screen, 48 h (100 = growth as untreated, 0 = no growth, -100 = all killed); conditions: 10 µM
About 83,000 compounds went through this panel and 20% of them were active in at least one assay; those are over-represented in the sample as a whole.
API: value field is a number in %; no unit string.

For orientation, consider the following solved cases.
O=C(CSc1nnc(-c2c[nH]c3ccccc23)n1-c1ccccc1)Nc1ccc(C(=O)/C=C/c2cccc([N+](=O)[O-])c2)cc1 :: 102
CC(=O)Nc1ccc(-n2cnc3cc(-c4ccc(NS(C)(=O)=O)cc4)ccc32)cc1 :: 64.4
O=C(Cn1nc(-c2ccccc2)ccc1=O)NN1C(=O)c2ccccc2C1=O :: 113

# next compound below
Q: Sample CN(C)c1ccc(/C=C/C(=O)c2ccc(NC(=O)CN3C(=O)NC(C)(c4ccccc4)C3=O)cc2)cc1 (centres undefined) — what was its growth?
Ans: 62.9

====

growth values, listed per item
tested on: SN12C renal; assay: NCI-60 one-dose screen, 48 h (100 = growth as untreated, 0 = no growth, -100 = all killed); details: 10 µM
Compounds without any hit were thinned out: in the full panel of roughly 83,000, 20% have a hit. Activity calls are given as the source filed them. Rule for the calls: active = growth percent below 10; inactive = the rest.

For orientation, consider the following solved cases.
COc1ccc(-c2ccc(SCC(=O)Nc3ccc(C#N)cc3)nn2)cc1 :: 95% (inactive)
COc1ccc2[nH]cc(/C=N/Nc3cccc(Cl)n3)c2c1 :: 38.7% (inactive)
Nc1nnc(-c2c[nH]c3ncccc23)c(-c2c[nH]c3ccc(Br)cc23)n1 :: 45.2% (inactive)

Q: For SN12C renal, provide growth of "O/N=C(\CSc1nnc(-c2c[nH]c3ccccc23)n1-c1ccccc1)c1ccc(Cl)cc1" please.
Ans: -16.2% (active)

Q: For SN12C renal, provide growth of COC1CC(Cn2cc(COc3ccc4ccc(=O)oc4c3)nn2)C(OCc2ccccc2)C(OCc2ccccc2)C1OCc1ccccc1 (stereo unspecified) please.
Ans: 106% (inactive)

Q: For SN12C renal, provide growth of "N#Cc1c(Cl)nc(SCc2ccc(F)cc2)nc1-c1ccc(F)cc1" please.
Ans: 80.9% (inactive)

Q: For SN12C renal, provide growth of O=C(Cc1ccc2c(c1)CN(C1CCC(=O)NC1=O)C2=O)NCc1cccc2ccccc12 (stereo unspecified) please.
Ans: -7.92% (active)

Q: For SN12C renal, provide growth of "O=C(CNc1nc(-c2ccccc2)cs1)Nc1ccc(Cl)cc1[N+](=O)[O-]" please.
Ans: -28.7% (active)

Q: For SN12C renal, provide growth of "O=C(NC(=S)N1CCN(c2ncnc3c2cnn3-c2ccccc2)CC1)c1ccc(Cl)cc1" please.
Ans: 28.3% (inactive)

Q: For SN12C renal, provide growth of "CCCn1c(=O)c2[nH]c(-c3ccc(OCc4nc5ccc(F)cc5[nH]4)cc3)nc2n(CCC)c1=O" please.
Ans: -20.1% (active)

Q: For SN12C renal, provide growth of "Clc1ccc(/C=N/Nc2ncnc3sc4c(c23)CCN(Cc2ccccc2)C4)cc1" please.
Ans: -62.4% (active)

Q: For SN12C renal, provide growth of "O=C(Nc1ccccc1)Nc1nc2ccccc2s1" please.
Ans: 88.9% (inactive)

Q: For SN12C renal, provide growth of "CCOC(=O)CNC(=O)CN(Cc1ccccc1)C(=O)[C@@]1(C)CCC[C@]2(C)[C@H]3CC4C(C(C)C)=C[C@]3(CC[C@H]21)[C@@H]1C(=O)CCC(=O)[C@H]41" please.
Ans: 50% (inactive)
